- system: T1, MHC class I molecule A*0201 (biotin (bound to streptavidin-coated plate))
- T1 construct: iTopia monomer stripped of placeholder peptide and b2M, then reconstituted with test peptide and fresh b2M; also called A2; HLA-A2
- experimental_details: iTopia peptide binding assay
- Description: The 9 mers were tested for Peptide Binding, Off Rate and Affinity using iTopia Epitope Discovery System in accordance with the manufacturer's instructions. Briefly, 96 well microtitre plates coated with MHC molecules representing different MHC alleles are used to identify candidate peptides. […] Determinations are performed in duplicate using an ELISA plate reader and included allele specific positive controls. […]
measurement_label: binding, % of positive control peptide

binder: SFRNLTHLE [5T4 9-mer peptide 127 (SFRNLTHLE)]
binding, % of positive control peptide: 1 % of positive control
--
binder: LDNNPWVCD [5T4 9-mer peptide 146 (LDNNPWVCD)]
binding, % of positive control peptide: 0 % of positive control
--
binder: RDHMEGYHY [5T4 9-mer peptide 197 (RDHMEGYHY)]
binding, % of positive control peptide: 6 % of positive control
--
binder: SADLDCDPI [5T4 9-mer peptide 170 (SADLDCDPI)]
binding, % of positive control peptide: 4 % of positive control
--
binder: ACRDHMEGY [5T4 9-mer peptide 196 (ACRDHMEGY)]
binding, % of positive control peptide: 8 % of positive control

Challenge: What value of binding, % of positive control peptide has been reported for the following binder? MRNRVLLEL [5T4 9-mer peptide 165 (MRNRVLLEL)]
Response given: 6 % of positive control

Challenge: Can you share its binding, % of positive control peptide? I mean this binder: IFLLVLYLN [5T4 9-mer peptide 185 (IFLLVLYLN)]
Response given: 8 % of positive control

Challenge: Return reported binding, % of positive control peptide; argument: KGIKKWMHN [5T4 9-mer peptide 190 (KGIKKWMHN)]
Response given: 14 % of positive control

Challenge: Which value of binding, % of positive control peptide has been reported for DRLTCAYPE [5T4 9-mer peptide 160 (DRLTCAYPE)] in the records?
Response given: 6 % of positive control

Challenge: For the binder shown here, DCDPILPPS [5T4 9-mer peptide 172 (DCDPILPPS)] , give the reported binding, % of positive control peptide.
Response given: 0 % of positive control

Challenge: Which value of binding, % of positive control peptide has been reported for HLESLHLED [5T4 9-mer peptide 130 (HLESLHLED)] in the records?
Response given: 3 % of positive control
